experiment: acute toxicity after intraperitoneal administration in rape oil; details: mouse, in vivo, ip
quantity: LD50 at 240 h (mg/kg)
Numbers only, in mg/kg.

The reported value for CC(/C=C/c1c(C)c(C)c2c(c1C)CCC(C)(C)O2)=C\C=C\C(C)=C\C(=O)O in terms of LD50 at 240 h is 950

* * *

experiment: acute toxicity after intraperitoneal administration in rape oil; settings: mouse, in vivo, ip
quantity: LD50 at 480 h (mg/kg)
Answers are plain numbers, in mg/kg.

The reported value for CC(/C=C/c1c(C)c(C)c2c(c1C)CCC(C)(C)O2)=C\C=C\C(C)=C\C(=O)O in terms of LD50 at 480 h is 950

Cited source for all entries: patent US3984440A
